From: paper PMC5491917

- System: histone deacetylase (HDAC) enzyme
- Experiment Notes: Whole cell HDAC enzyme assay
- Assay type: cell-based, human
- Run Parameters: HCT116 cells, 18 h treatment, mean ± SEM, triplicate; read-out: IC50 whole cell HDAC enzyme inhibition
pIC50: −log10 of the molar value.
Endpoint Name: pIC50

(I) O=C(CCCCCCC(=O)Nc1ccccc1)NO [SAHA, reference compound]
(II) CN(C)c1ccc(/C=C/C(=O)c2ccc(O)cc2O)cc1 [C5]
(III) O=C(/C=C/c1ccc(O)cc1)c1ccccc1O [C2]
rank_up(items): orders items by reported pIC50 in ascending numerical order. List labels; respect the requested ordering.
III, II, I
(III: 3.40, II: 3.79, I: 5.44)
